assay: blockers of an Epstein-Barr virus protein-peptide interaction – biochemical, fluorescence polarization, dose response (AID 1419); settings: cell-free protein-peptide binding, 2 h
Calls of active or inactive are those of the source. No rule for the calls is given here.
Tick one outcome: active, inactive

The examples below pair each entry with its known result.
CC(C)NC(=O)c1sc2nc(-c3cccs3)cc(-c3cccs3)c2c1N
active
O=C1Nc2cc(Cl)cnc2N2CCCC12 (stereo unspecified)
inactive
CC1CCCCC1NC(=O)CN1C(=O)c2cccc(N)c2C1=O (stereo unspecified)
active
CS(=O)(=O)Nc1nc2n(n1)C(c1ccccc1)C=C(c1ccc(Br)cc1)N2 (stereo unspecified)
active
O=C1c2cccc3c(N4CCCCC4)ccc(c23)C(=O)N1c1ccccn1
active

Just curious, what result did Cc1ccsc1C1C=C(c2cccc(Br)c2)Nc2ncnn21 (stereo unspecified) get here? active

Just curious, what result did `Nc1c(C(=O)NC2CC2)sc2nc3c(c(-c4ccco4)c12)CC/C3=C/c1ccco1` get here? active

###

experiment: blockers of an Epstein-Barr virus protein-peptide interaction – biochemical, fluorescence polarization, dose response (AID 1419); details: cell-free protein-peptide binding, 2 h
Calls of active or inactive are those of the source. The rule behind the calls is not given here.
Tick one outcome: active, inactive

The examples below pair each entry with its known result.
Cc1cc(N2CCCC2)ccc1C=C(C#N)C#N
active
CCN1C(=O)/C(=C\c2ccc(-c3ccc([N+](=O)[O-])cc3OC)o2)SC1=Nc1cccc(C(=O)O)c1
inactive
Cc1ccn(C(=O)c2ccc(NC(=O)C3CCCCC3)cc2)n1
inactive

Just curious, what result did O=C1NC(=O)C2=Cc3ccc(O)cc3OC2(O)N1 (stereo unspecified) get here? active

Just curious, what result did `O=C(ONc1ccc(N=NC(=O)c2ccccc2O)cc1)c1ccccc1` get here? inactive

###

assay: blockers of an Epstein-Barr virus protein-peptide interaction – biochemical, fluorescence polarization, dose response (AID 1419); details: cell-free protein-peptide binding, 2 h
Activity calls are given as the source filed them. No rule for the calls is given here.
Tick one outcome: active, inactive

The examples below pair each entry with its known result.
O=[N+]([O-])c1cc(/C=N\Nc2nccs2)ccc1O
active
COc1ccc(C(=O)c2sc3nc(C)cc(-c4cccs4)c3c2N)cc1
active
COC(=O)[C@@]1(C#N)[C@@H]2C=CC(C(C)=O)=CN2[C@@H](C(N)=O)[C@@H]1c1ccc(F)cc1
active
CCCN1C(=O)/C(=C\C=C2\N(CC)c3ccccc3C2(C)C)SC1=S
active
Cc1ccc(C2C(C(=O)c3cccs3)=C(O)C(=O)N2c2nnc(C)s2)cc1 (stereo unspecified)
active
Cc1ccc(C2C(C(=O)c3ccco3)=C(O)C(=O)N2c2nnc(C)s2)cc1 (stereo unspecified)
inactive

Just curious, what result did `O=c1[nH]c(Nc2ccccc2)cc2ccccc12` get here? active

Just curious, what result did `C=CCc1cccc(C=Nc2cc(Br)ccc2O)c1O` get here? active

Just curious, what result did C1=C(c2ccc(-c3ccccc3)cc2)Nc2ncnn2C1c1ccco1 (stereo unspecified) get here? active

Just curious, what result did `CCN(CC)c1ccc(/C=C(\C#N)C(=O)c2ccc(Br)cc2)cc1` get here? active

Just curious, what result did `C#CCOC(=O)/C(=C/C=C/c1ccccc1)NC(=O)c1ccccc1` get here? inactive

###

assay: blockers of an Epstein-Barr virus protein-peptide interaction – biochemical, fluorescence polarization, dose response (AID 1419); details: cell-free protein-peptide binding, 2 h
Active and inactive are the calls of the source. How the calls were made is not given here.
Tick one outcome: TRUE for active, FALSE for inactive

COc1ccc(NC(=O)c2sc3nc(-c4cccnc4)ccc3c2N)cc1
TRUE
O=C(Nc1ccc2nc3ccccc3nc2c1)c1ccccc1
TRUE
O=C(N=Nc1c(O)[nH]c2ccccc12)c1cc(-c2cccs2)[nH]n1
TRUE
Fc1ccc(C2=CC(c3ccc(Br)o3)n3ncnc3N2)cc1 (stereo not drawn)
TRUE

Just curious, what result did `Cc1nnc(NC(=O)CSc2cn(CCNC(=O)c3ccccc3)c3ccccc23)s1` get here? FALSE

Just curious, what result did `Cc1nn(-c2ccccc2)c(N2CCCC2)c1/C=C1\N=C(c2ccc(F)cc2)OC1=O` get here? TRUE

Just curious, what result did `COc1cc(/C=C2\SC(=O)N(c3ccc(Cl)cc3)C2=O)cc([N+](=O)[O-])c1O` get here? TRUE

Just curious, what result did `COc1ccc(N=Nc2nc3cc(Br)c(Br)cc3n2C)c(OC)c1` get here? TRUE
